# system-name: human LPA1 receptor (Homo sapiens (Human), UniProt Q92633)
# Sequence (Q92633 whole entry): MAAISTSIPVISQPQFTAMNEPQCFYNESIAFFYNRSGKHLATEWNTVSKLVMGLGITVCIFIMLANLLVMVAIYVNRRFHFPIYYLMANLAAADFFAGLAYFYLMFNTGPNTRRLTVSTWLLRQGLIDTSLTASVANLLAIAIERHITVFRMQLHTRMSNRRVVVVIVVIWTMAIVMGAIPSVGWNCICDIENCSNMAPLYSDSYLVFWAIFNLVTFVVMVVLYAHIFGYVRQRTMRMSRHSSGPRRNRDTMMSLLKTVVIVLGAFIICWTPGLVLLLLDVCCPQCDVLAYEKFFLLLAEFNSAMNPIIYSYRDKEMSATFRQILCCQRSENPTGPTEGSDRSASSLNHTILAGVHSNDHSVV
# protocol-details: Beta-arrestin recruitment assay to determine IC50 values for human LPAR1
# Assay type: cell-based
# experimental-context: antagonist mode, Tango EDG2-bla U2OS cells, LPA 18:1 500 nM final
# Procedure: Beta-Arrestin Recruitment Assay to Determine IC50 Values for Human LPAR1 The Tango™ EDG2-bla U2OS cells are obtained from Invitrogen. […] Upon LPA (agonist) binding, LPA1 receptor gets activated, leading to arrestin-protease recruitment and proteolytic release of the transcription factor: The transcription factor then regulates transcription of a beta-lactamase reporter construct, which is measured upon addition of the live-cell substrate. […]
Structures can show the parent of a compound that is named as a salt.
experimental-readout: IC50 (nM)

Worked examples follow.
INSERT INTO measurements (compound, result_value) VALUES
  ('CC(C)c1ccccc1C1(C(=O)Nc2cccnc2OC(F)F)CNC1 [Ex 7, hydrochloride]', 413),
  ('COC(=O)C1(CS(=O)(=O)N2CC(C(=O)Nc3ccc(C)nc3OC(F)F)(c3ccccc3C(C)C)C2)COC1', 280),
  ('COC(=O)C(C)(C)CC(=O)N1CC(C(=O)Nc2ccc(OC)nc2OC)(c2ccccc2C(C)C)C1', 140),
  ('CC(=O)NS(=O)(=O)CC(=O)N1CC(C(=O)Nc2ccc(C)nc2OC(F)F)(c2ccccc2C(C)C)C1', 83),
  ('CC(C)c1ccccc1C1(C(=O)Nc2cccnc2OC(F)F)CN(S(N)(=O)=O)C1', 10);

I = C=C(CC(=O)O)C(=O)N1CC(C(=O)Nc2ccc(C)nc2OC(F)F)(c2ccccc2C(C)C)C1
II = Cc1ccc(NC(=O)C2(c3ccccc3C(C)C)CN(Cc3nnn[nH]3)C2)c(OC(F)F)n1
Which entry shows the lesser value of IC50 here, I or II ? Give the label of your selection. I

* * *

# system-name: human LPA1 receptor (Homo sapiens (Human))
# protocol-details: Beta-arrestin recruitment assay to determine IC50 values for human LPAR1
# experimental-context: antagonist mode, Tango EDG2-bla U2OS cells, LPA 18:1 500 nM final
experimental-readout: IC50 (µM)

INSERT INTO results (molecule, result_units, result_value) VALUES
  ('CCOC(=O)C[C@@H](CC(=O)N1CC(C(=O)Nc2ccc(C)nc2OC(F)F)(c2ccccc2C(C)C)C1)OC(C)=O [Ex 12-104]', 'µM', 0.041);

P = COC(=O)CNCC(=O)N1CC(C(=O)Nc2ccc(C)nc2OC(F)F)(c2ccccc2C(C)C)C1 [Ex 56]
Q = CNC(=O)C(C)(C)CCN1CC(C(=O)Nc2ccc(C)nc2OC(F)F)(c2ccccc2C(C)C)C1 [Ex 11-92]
R = Cc1ccc(NC(=O)C2(c3ccccc3C(C)C)CN(CCC3(O)CC3)C2)c(OC(F)F)n1 [Ex 11-10]
S = Cc1ccc(NC(=O)C2(c3ccccc3C(C)C)CN(C(=O)[C@H](CO)NC(=O)OC(C)(C)C)C2)c(OC(F)F)n1 [Ex 12-39]
T = Cc1ccc(NC(=O)C2(c3ccccc3C(C)C)CN(C(=O)Cn3nccn3)C2)c(OC(F)F)n1 [Ex 12-21]
Rank order required: IC50, descending. Your answer should be the labels, listed in the requested order. S, Q, R, P, T

* * *

# system-name: human LPA1 receptor (Homo sapiens (Human), UniProt Q92633)
# protocol-details: Beta-arrestin recruitment assay to determine IC50 values for human LPAR1
# experimental-context: antagonist mode, Tango EDG2-bla U2OS cells, LPA 18:1 500 nM final
experimental-readout: IC50 (µM)

1 = Cc1ccc(NC(=O)C2(c3ccccc3C(C)C)CN(Cc3n[nH]cc3C(=O)O)C2)c(OC(F)F)n1
2 = CC(=O)N(CCC(=O)N1CC(C(=O)Nc2ccc(C)nc2OC(F)F)(c2ccccc2C(C)C)C1)OCc1ccccc1
3 = Cc1ccc(NC(=O)C2(c3ccccc3C(C)C)CN(C(=O)C3(C(=O)O)CNC3)C2)c(OC(F)F)n1
Sort low-to-high on IC50, please. Your answer should be the labels, listed in the requested order. 1, 2, 3

a = Cc1ccc(NC(=O)C2(c3ccccc3C(C)C)CN(Cc3cn(CC(=O)O)nn3)C2)c(OC(F)F)n1
b = Cc1ccc(NC(=O)C2(c3ccccc3C(C)C)CCN(C(=O)Cn3nccn3)CC2)c(OC(F)F)n1
Which entry shows the lesser value of IC50 here, a or b ? Give the label of your selection. b
(b: 0.007 µM, a: 0.547 µM)

a = Cc1ccc(NC(=O)C2(c3ccccc3C(C)C)CN(c3ccncc3F)C2)c(OC(F)F)n1
b = CCOC(=O)c1cc(CN2CC(C(=O)Nc3ccc(C)nc3OC(F)F)(c3ccccc3C(C)C)C2)on1
Select one: a or b . Criterion: greater recorded IC50. Give the label of your selection. b
(b: 0.079 µM, a: 0.002 µM)

* * *

# system-name: human LPA1 receptor (Homo sapiens (Human), UniProt Q92633)
# protocol-details: Beta-arrestin recruitment assay to determine IC50 values for human LPAR1
# experimental-context: antagonist mode, Tango EDG2-bla U2OS cells, LPA 18:1 500 nM final
experimental-readout: IC50 (µM)

Worked examples follow.
INSERT INTO results (compound, result_units, result_value) VALUES
  ('Cc1ccc(NC(=O)C2(c3ccccc3C(C)C)CN(C(=O)NC(C)(C)C(=O)O)C2)c(OC(F)F)n1 [Ex 17-13]', 'µM', 0.025),
  ('Cc1ccc(NC(=O)C2(c3ccccc3C(C)C)CN(S(=O)(=O)CCCCC(=O)O)C2)c(OC(F)F)n1 [Ex 13-19]', 'µM', 0.055),
  ('Cc1ccc(NC(=O)C2(c3ccccc3C(C)C)CN(C3=NC(=O)CO3)C2)c(OC(F)F)n1 [Ex 19]', 'µM', 0.004);

a = Cc1ccc(NC(=O)C2(c3ccccc3C(C)C)CN(CCC3(C(=O)O)CC3)C2)c(OC(F)F)n1 [Ex 11-72]
b = CCOC(=O)CNS(=O)(=O)N1CC(C(=O)Nc2ccc(C)nc2OC(F)F)(c2ccccc2C(C)C)C1 [Ex 15-1]
c = Cc1ccc(NC(=O)C2(c3ccccc3C3CCOCC3)CN(C(=O)CC(C)(C)C(=O)O)C2)c(OC(F)F)n1 [Ex 31-6]
d = Cc1ccc(NC(=O)C2(c3ncccc3C(C)C)CN(C(=O)NC3CC3)C2)c(OC(F)F)n1 [Ex 63]
e = Cc1ccc(NC(=O)C2(c3ccccc3C(C)C)CNC2)c(OC(C)C)n1 [Ex 2]
Rank order required: IC50, descending. Your answer should be the labels, listed in the requested order. e, c, a, d, b
(e: 0.32 µM, c: 0.185 µM, a: 0.052 µM, d: 0.008 µM, b: 0.005 µM)

* * *

# system-name: human LPA1 receptor (Homo sapiens (Human))
# protocol-details: Beta-arrestin recruitment assay to determine IC50 values for human LPAR1
# experimental-context: antagonist mode, Tango EDG2-bla U2OS cells, LPA 18:1 500 nM final
experimental-readout: IC50 (nM)

Worked examples follow.
INSERT INTO measurements (molecule, system_name, result_value) VALUES
  ('Cc1ccc(NC(=O)C2(c3ccccc3C(C)C)CN(c3cnc(C(=O)O)cn3)C2)c(OC(F)F)n1 [Ex 18-9]', 'human LPA1 receptor (Homo sapiens (Human))', 11),
  ('COC(=O)[C@@H]1C[C@@H]1C(=O)N1CC(C(=O)Nc2ccc(C)nc2OC(F)F)(c2ccccc2C(C)C)C1 [Ex 12-96]', 'human LPA1 receptor (Homo sapiens (Human))', 34),
  ('Cc1ccc(NC(=O)C2(c3ccccc3C(C)C)CN(c3ccc(C(=O)O)nn3)C2)c(OC(F)F)n1 [Ex 18-7]', 'human LPA1 receptor (Homo sapiens (Human))', 12);

P = COC(=O)COC(=O)N1CC(C(=O)Nc2ncc(C)cc2OC(F)F)(c2ccccc2C(C)C)C1 [Ex 83-1]
Q = Cc1ccc(NC(=O)C2(c3ccccc3C(C)C)CN(C(=O)CNCCC(=O)O)C2)c(OC(F)F)n1 [Ex 44]
R = Cc1ccc(NC(=O)C2(c3ccccc3C(C)C)CN(C(=O)CN3CC(=O)NC3=O)C2)c(OC(F)F)n1 [Ex 12-126]
Rank order required: IC50, descending. Your answer should be the labels, listed in the requested order. Q, P, R
(Q: 155 nM, P: 74 nM, R: 46 nM)

* * *

# system-name: human LPA1 receptor (Homo sapiens (Human), UniProt Q92633)
# protocol-details: Beta-arrestin recruitment assay to determine IC50 values for human LPAR1
# experimental-context: antagonist mode, Tango EDG2-bla U2OS cells, LPA 18:1 500 nM final
experimental-readout: IC50 (nM)

Worked examples follow.
INSERT INTO measurements (molecule, experimental_readout, result_value) VALUES
  ('Cc1ccc(NC(=O)C2(c3ccccc3C(C)C)CN(C(=O)CNCC3(O)CC3)C2)c(OC(F)F)n1', 'IC50', 17),
  ('CCOC(=O)c1ccnc(N2CC(C(=O)Nc3ccc(C)nc3OC(F)F)(c3ccccc3C(C)C)C2)n1', 'IC50', 560),
  ('Cc1ccc(NC(=O)C2(c3ccccc3C(C)C)CN(C(=O)NCCC(=O)O)C2)c(OC(F)F)n1', 'IC50', 41),
  ('Cc1ccc(NC(=O)C2(c3ccccc3C(C)C)CN(CC3CCC(C(=O)O)CC3)C2)c(OC(F)F)n1 (centres unmarked)', 'IC50', 96),
  ('Cc1ccc(NC(=O)C2(c3ccccc3C(C)C)CN(C#N)C2)c(OC(F)F)n1', 'IC50', 11),
  ('CONC(=O)CC(=O)N1CC(C(=O)Nc2ccc(C)nc2OC(F)F)(c2ccccc2C(C)C)C1', 'IC50', 35),
  ('Cc1ccc(NC(=O)C2(c3ccccc3C(C)C)CN(CC3(C(=O)O)COC3)C2)c(OC(F)F)n1', 'IC50', 46),
  ('Cc1ccc(NC(=O)C2(c3ccccc3C(C)C)CN(S(=O)(=O)NCC(=O)O)C2)c(OC(F)F)n1', 'IC50', 7);

A = COc1cc(Cl)cnc1NC(=O)C1(c2ccccc2C(C)C)CN(C(=O)CC(C)(C)C(=O)O)C1
B = O=C(Nc1ncc(Cl)cc1OC(F)F)C1(c2ccccc2C2CCCC2)CNC1
Which entry shows the lesser value of IC50 here, A or B ? Give the label of your selection. B
(B: 19 nM, A: 123 nM)
